experiment: Antioxidant activity assessed as hydroxyl radical scavenging activity after 15 mins by spectrophotometry; format: functional
Mark rule met for IC50 under 60 µg/mL, rule not met if at or over.

See these solved cases before continuing.
Compound	Assigned Class
Cc1nc2c3ccccc3ccc2c2nc3c(ccc4ccccc43)c(-c3ccccc3N)c12	rule met
Cc1nc2c3ccccc3ccc2c2nc3c(ccc4ccccc43)c(-c3nccnc3N)c12	rule met
Cc1ccc(-c2c3ccc4ccccc4c3nc3c2c(C)nc2c4ccccc4ccc32)cc1	rule not met
Cc1nc2c3ccccc3ccc2c2nc3c(ccc4ccccc43)c(-c3cc(O)nc4ccccc34)c12	rule met
COc1ccc(O)c(C(C)(C)C)c1.COc1ccc(O)cc1C(C)(C)C [BUTYLATED HYDROXYANISOLE]	rule not met
Cc1nc2c3ccccc3ccc2c2nc3c(ccc4ccccc43)c(-c3cc([N+](=O)[O-])ccc3N)c12	rule met

Problem: Check if IC50 falls below 60 µg/mL for "Cc1nc2c3ccccc3ccc2c2nc3c(ccc4ccccc43)c(-c3cccnc3)c12" .
Result: rule not met

Problem: Check if IC50 falls below 60 µg/mL for "Cc1nc2c3ccccc3ccc2c2nc3c(ccc4ccccc43)c(-c3cccc4ccccc34)c12" .
Result: rule not met

Problem: Check if IC50 falls below 60 µg/mL for "Cc1nc2c3ccccc3ccc2c2nc3c(ccc4ccccc43)c(C)c12" .
Result: rule not met

* * *

test: Antioxidant activity assessed as hydroxyl radical scavenging activity after 15 mins by spectrophotometry; format: functional
Can you tell me IC50 for the items I'm about to list?
Numbers only, in µg/mL.

// below: answered compounds
Molecule	Assay Endpoint	Reading
COc1ccc(-c2c3ccc4ccccc4c3nc3c2c(C)nc2c4ccccc4ccc32)cc1	IC50	82.3
Cc1nc2c3ccccc3ccc2c2nc3c(ccc4ccccc43)c(-c3ccccc3)c12	IC50	84.6
Cc1nc2c3ccccc3ccc2c2nc3c(ccc4ccccc43)c(-c3ccccc3Cl)c12	IC50	74.6

Please supply IC50 for each of the following items, keeping them in order.
1. Cc1nc2c3ccccc3ccc2c2nc3c(ccc4ccccc43)c(-c3ccc(O)cc3)c12
2. Cc1cc(Nc2cccc3ccccc23)c2ccc3ccccc3c2n1
3. Cc1nc2c3ccccc3ccc2c2nc3c(ccc4ccccc43)c(-c3ccccc3S)c12

Result:
1: 44.1; 2: 62.3; 3: 49.6

Problem: Can you look up the measured IC50 of "Cc1nc2c3ccccc3ccc2c2nc3c(ccc4ccccc43)c(-c3cccc([N+](=O)[O-])c3)c12" for me?
Result: 54.2
